- target-system: UniProtKB P26663
- Sequence (P26663 2420-3010): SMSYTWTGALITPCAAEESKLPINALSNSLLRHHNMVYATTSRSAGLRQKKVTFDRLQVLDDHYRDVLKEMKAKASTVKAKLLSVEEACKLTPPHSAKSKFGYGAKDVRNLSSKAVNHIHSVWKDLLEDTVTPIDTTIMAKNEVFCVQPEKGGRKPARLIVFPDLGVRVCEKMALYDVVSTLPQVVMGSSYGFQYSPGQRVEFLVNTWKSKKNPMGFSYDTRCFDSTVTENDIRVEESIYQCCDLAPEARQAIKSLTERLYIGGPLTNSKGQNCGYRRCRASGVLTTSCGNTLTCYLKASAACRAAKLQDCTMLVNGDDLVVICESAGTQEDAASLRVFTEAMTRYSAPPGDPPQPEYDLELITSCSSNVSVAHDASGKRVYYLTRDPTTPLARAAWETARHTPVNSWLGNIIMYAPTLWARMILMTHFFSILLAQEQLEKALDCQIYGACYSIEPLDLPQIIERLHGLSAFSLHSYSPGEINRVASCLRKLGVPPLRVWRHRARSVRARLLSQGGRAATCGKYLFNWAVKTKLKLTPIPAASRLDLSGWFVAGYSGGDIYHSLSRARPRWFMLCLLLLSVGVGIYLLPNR
quantity-kind: IC50 (µM)

{"substance-smiles": "Cc1ccc(-c2cc(C(F)(F)F)nn2-c2ccc(S(=O)(=O)NC(=S)NCc3ccccc3)cc2)cc1", "quantity-kind": "IC50", "reported": 36.2}

====

- Tested on: lipid peroxidation in stomach
- test-protocol: Lipid peroxidation in stomach (TBARS)
- Type: in vivo, mice
- measurement-setup: 100 mg/kg, 8 h after analgesic test
quantity-kind: Lipid peroxidation (nmol TBARS/g wet weight)

{"substance-smiles": "Cc1ccc(-c2cc(C(F)(F)F)nn2-c2ccc(S(=O)(=O)NC(=S)Nc3ccc([N+](=O)[O-])cc3)cc2)cc1", "target-system": "lipid peroxidation in stomach", "quantity-kind": "Lipid peroxidation", "units-symbol": "nmol TBARS/g wet weight", "reported": 429.2}
{"substance-smiles": "Cc1ccc(-c2cc(C(F)(F)F)nn2-c2ccc(S(=O)(=O)NC(=S)Nc3ccc(C(F)(F)F)cc3)cc2)cc1", "target-system": "lipid peroxidation in stomach", "quantity-kind": "Lipid peroxidation", "units-symbol": "nmol TBARS/g wet weight", "reported": 406.9}
{"substance-smiles": "CCNC(=S)NS(=O)(=O)c1ccc(-n2nc(C(F)(F)F)cc2-c2ccc(C)cc2)cc1", "target-system": "lipid peroxidation in stomach", "quantity-kind": "Lipid peroxidation", "units-symbol": "nmol TBARS/g wet weight", "reported": 387.7}
{"substance-smiles": "Cc1ccc(-c2cc(C(F)(F)F)nn2-c2ccc(S(=O)(=O)/N=C3\\SCC(=O)N3Cc3ccccc3)cc2)cc1", "target-system": "lipid peroxidation in stomach", "quantity-kind": "Lipid peroxidation", "units-symbol": "nmol TBARS/g wet weight", "reported": 330.4}
{"substance-smiles": "Cc1ccc(-c2cc(C(F)(F)F)nn2-c2ccc(S(=O)(=O)/N=C3\\SCC(=O)N3c3ccc([N+](=O)[O-])cc3)cc2)cc1", "target-system": "lipid peroxidation in stomach", "quantity-kind": "Lipid peroxidation", "units-symbol": "nmol TBARS/g wet weight", "reported": 350.2}

Reference for the values: paper PMC6269910
